Source: the supplement of paper PMC4862054

# System: DU-4475
# assay procedure: normalised viability (% of control), CellTiter-Blue; higher = more viable cells (about 100 = DMSO control)
# run conditions: 3 nM; incubation time: 72 h
# Lookup of reported normalised viability keyed by entry
Please respond with the number in % and leave the unit unwritten.

- COc1cc(Nc2ncc3c(n2)-c2ccc(Cl)cc2C(c2c(F)cccc2OC)=NC3)ccc1C(=O)O: 98.3

q: Look at this compound and give its reported normalised viability. `C[C@]1(c2nc3c(C(N)=O)cccc3[nH]2)CCCN1`
a: 78.6

q: Look at this compound and give its reported normalised viability. `Cc1ccc(F)c(NC(=O)Nc2ccc(-c3cccc4[nH]nc(N)c34)cc2)c1`
a: 93.6

q: Look at this compound and give its reported normalised viability. `Nc1nc(Cl)nc2c1ncn2[C@H]1C[C@H](O)[C@@H](CO)O1`
a: 104

q: Look at this compound and give its reported normalised viability. `C=CCNC1=C2C[C@@H](C)C[C@H](OC)[C@H](O)[C@@H](C)/C=C(\C)[C@H](OC(N)=O)[C@@H](OC)/C=C\C=C(/C)C(=O)NC(=CC1=O)C2=O`
a: 104

q: Look at this compound and give its reported normalised viability. `COc1cccc2cc(-c3nc([C@H]4CC[C@H](C(=O)O)CC4)n4ncnc(N)c34)[nH]c12`
a: 96.6

q: Look at this compound and give its reported normalised viability. Clc1ccc(C(c2ccccc2Cl)C(Cl)Cl)cc1 (stereo not drawn)
a: 109

q: Look at this compound and give its reported normalised viability. `CN1CCC(COc2cnc(-c3cccc(Cn4nc(-c5cccc(C#N)c5)ccc4=O)c3)nc2)CC1`
a: 94.1

###

# Tested on: Hs578T
# assay procedure: normalised viability (% of control), CellTiter-Blue; higher = more viable cells (about 100 = DMSO control)
# run conditions: 10 nM; incubation time: 72 h
parameter: normalised viability (%)
Please respond with the number in % and leave the unit unwritten.

q: Record `Cc1ccc(F)c(NC(=O)Nc2ccc(-c3cccc4[nH]nc(N)c34)cc2)c1` : what is its normalised viability with Hs578T?
a: 82.9

q: Record `CO[C@H]1C[C@@H]2CC[C@@H](C)[C@@](O)(O2)C(=O)C(=O)N2CCCC[C@H]2C(=O)O[C@H]([C@H](C)C[C@@H]2CC[C@@H](OC(=O)C(C)(CO)CO)[C@H](OC)C2)CC(=O)[C@H](C)/C=C(\C)[C@@H](O)[C@@H](OC)C(=O)[C@H](C)C[C@H](C)/C=C/C=C/C=C/1C` : what is its normalised viability with Hs578T?
a: 50.2

q: Record `COc1cccc2c1C(=O)c1c(O)c3c(c(O)c1C2=O)C[C@@](O)(C(=O)CO)C[C@@H]3O[C@H]1C[C@H](N)[C@H](O)[C@H](C)O1` : what is its normalised viability with Hs578T?
a: 99.5

q: Record `Cc1c2oc3c(C)ccc(C(=O)N[C@@H]4C(=O)N[C@H](C(C)C)C(=O)N5CCC[C@H]5C(=O)N(C)CC(=O)N(C)[C@@H](C(C)C)C(=O)O[C@@H]4C)c3nc-2c(C(=O)N[C@@H]2C(=O)N[C@H](C(C)C)C(=O)N3CCC[C@H]3C(=O)N(C)CC(=O)N(C)[C@@H](C(C)C)C(=O)O[C@@H]2C)c(N)c1=O` : what is its normalised viability with Hs578T?
a: 23.3
